- Target Or Test System: Follistatin-related protein 3 (Homo sapiens)
- Test Summary: compounds binding follistatin-related protein 3 – biochemical, small-molecule microarray, 635 nm fluorescence, primary screen (AID 1105);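 note: score merges emission near 667 nm and signal to noise per printed spot across three slides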
- Particulars: FSTL3 binding, higher = more signal

>  <Compound>
COCCOC(=O)N1C(=O)[C@@]2(c3cc(C#CCC(C(=O)OC)C(=O)OC)ccc31)[C@H](C(=O)Nc1nc3ccccc3s1)[C@H]1C(=O)O[C@H](c3ccccc3)[C@H](c3ccccc3)N1[C@@H]2c1ccc(OCCO)cc1

>  <composite z-score>
1

$$$$
>  <Compound>
C=CCNC(=O)[C@H]1[C@@H]2C(=O)O[C@@H](c3ccccc3)[C@@H](c3ccccc3)N2[C@@H](c2ccc(OCCO)cc2)[C@]12C(=O)Nc1ccccc12

>  <composite z-score>
0.227

$$$$
>  <Compound>
[N-]=[N+]=NCc1ccccc1[C@@H]1OC(c2ccc(OCCCO)cc2)=N[C@]1(Cc1ccccc1N=[N+]=[N-])C(=O)NCC(O)CO (some centres not stated)

>  <composite z-score>
0.418

$$$$
>  <Compound>
[N-]=[N+]=Nc1ccccc1C[C@@]1(C(=O)NCc2ccccc2)N=C(c2ccc(OCCCO)cc2)O[C@@H]1c1ccccc1N=[N+]=[N-]

>  <composite z-score>
0.309

$$$$
>  <Compound>
CCOC(=O)C[C@H]1[C@H](OC(=O)c2ccccc2-c2ccccc2)[C@@H](NC(=O)C2CCCCC2)c2cc(OCCCO)ccc2N1C(=O)c1ccc2ccccc2n1

>  <composite z-score>
0.845

$$$$
>  <Compound>
N#Cc1ccc(C(O)C2C=CC3C(=O)NC(=O)C3N2Nc2ccc(Cl)cc2Cl)cc1 (configuration not stated)

>  <composite z-score>
-0.124

$$$$
>  <Compound>
CC(C)NC(=O)[C@@]1(C)c2ccccc2C(=O)N(Cc2ccccc2)[C@H]1c1ccc(CO)cc1

>  <composite z-score>
-0.394

$$$$
